testedTarget: T1, human CD137 expressed on the surface of CHO cells (human, UniProt Q07011 24-255)
T1 construct: Also used for the Jurkat reporter cells that express human CD137 (functional rows); also called CHO human CD137 cells; CHO huCD137
T1 sequence (Q07011 24-255 limits assumed): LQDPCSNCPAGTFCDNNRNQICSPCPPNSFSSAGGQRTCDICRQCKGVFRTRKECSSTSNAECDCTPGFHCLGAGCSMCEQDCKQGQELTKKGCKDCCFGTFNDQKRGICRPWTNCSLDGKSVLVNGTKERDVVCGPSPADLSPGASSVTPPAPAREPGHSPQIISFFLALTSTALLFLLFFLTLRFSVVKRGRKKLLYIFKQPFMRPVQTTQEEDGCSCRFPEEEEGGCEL
protocol: FMAT ligand inhibition, CD137 Ligand on CHO human CD137 cells
pIC50: −log10 of the molar value.
assayReadout: pIC50

Humabody VH 1.108 (VHH, human single VH domain) VHH: EVQLVESGGGLVQPGGSLRLSCAATGFTLSNYWMNWVRQAPGKGLEWVANINQDGSERYYVDSVKGRFTISRDNAKNSLYLQMNSLRAEDTAVYFCARGGEGYGVDHYGLDVSGQGTTVTVSS ... 9.30

[A] Humabody VH 1.112 (VHH, human single VH domain) VHH: EVQLVESGGGLVQPGGSLRLSCAATGFTLSNYWMNWVRQAPGKGLEWVANINQDGSERYYVDSVKGRFTISRDNAKNSLYLQMNSLRAEDTAVYYCARGGEGYGVDHYGLDVSGQGTTVTVSS
[B] Humabody VH 2.45 (VHH, human single VH domain) VHH: EVQLVESGGGLVKPGGSLRLSCAASGFTFSDYYMSWFRQAPGKGLEWVSYISGSGDIIDYADSVKGRFTISRDNAKNSLYLQMNNLRAEDTAVYYCAREDSRLTGTTDFDNWGQGTLVTVSS
[C] Humabody VH 1.11 (VHH, human single VH domain) VH: EVQLVESGGGLVQPGGSLRLSCEASGFTFSDYWMNWARQAPGKGLEWVANIKEDGSEKYYVDSVEGRFTISRDNAKNSTYLQMNSLRAEDTAVYYCARGGAGYSMSHYGMDVWGQGTTVTVSSHHHHHH
## Task // smallest pIC50 at index 0, largest at the end Reply with the labels, ordered as the question asks.
## Result B, C, A
(B: 8.28, C: 8.80, A: 9.33)

These measurements were taken from patent US20200362047A1.
